In this section we review reported GPI/LMMP SP antagonist Ke values for a set of binders.
Target: guinea pig NK1 receptor (guinea pig, UniProt P30547 1-407)
Sequence (P30547 whole entry): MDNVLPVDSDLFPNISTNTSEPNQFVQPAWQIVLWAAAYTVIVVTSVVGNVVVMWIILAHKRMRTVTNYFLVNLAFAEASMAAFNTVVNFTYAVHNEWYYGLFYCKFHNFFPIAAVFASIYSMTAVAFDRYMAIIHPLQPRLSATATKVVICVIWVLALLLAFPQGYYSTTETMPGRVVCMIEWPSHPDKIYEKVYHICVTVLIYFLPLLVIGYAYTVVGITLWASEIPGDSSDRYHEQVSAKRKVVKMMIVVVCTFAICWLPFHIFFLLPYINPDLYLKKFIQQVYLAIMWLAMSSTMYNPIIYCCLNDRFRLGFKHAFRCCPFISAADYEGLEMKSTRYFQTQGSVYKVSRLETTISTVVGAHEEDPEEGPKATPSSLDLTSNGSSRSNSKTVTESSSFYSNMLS
Test: cell-based or functional assay
Square brackets hold non-standard residues; d marks the D form. Ends that are not written are not given here. * marks the point of attachment. OBzl(3,5-(CF3)2) = FC(F)(F)c1cc(CO*)cc(C(F)(F)F)c1

These recorded examples may help you get a feel for the data.
- YAGFMPLW (D-Ala at 2; Met(O) at 5; C-terminal O-3,5-Bzl(CF3)2 ester, also called TY023) [TyrDAlaGlyPheMet(O)ProLeuTrpOBn(CF3)2]: 7.8 nM
- Y[dA]GFMPLW-{OBzl(3,5-(CF3)2)} (also called TY005) [TyrDAlaGlyPheMetProLeuTrpOBn(CF3)2]: 24.7 nM
- Y[dA]GFLPLW-{OBzl(3,5-(CF3)2)} (also called TY004) [TyrDAlaGlyPheLeuProLeuTrpOBn(CF3)2]: 19.4 nM
- Y[dA]GF[dF]PLW-{OBzl(3,5-(CF3)2)} (also called TY007) [TyrDAlaGlyPheDPheProLeuTrpOBn(CF3)2]: 69.6 nM
- Y[dA]GFGPLW-{OBzl(3,5-(CF3)2)} (also: TFA salt, also called TY006) [TyrDAlaGlyPheGlyProLeuTrpOBn(CF3)2]: 5.4 nM

State, in one line, measured GPI/LMMP SP antagonist Ke of YAGFXPLW (D-Ala at 2; Nle at 5 (written X); C-terminal O-3,5-Bzl(CF3)2 ester, also called TY018) [TyrDAlaGlyPheNleProLeuTrpOBn(CF3)2] 7.9 nM

State, in one line, measured GPI/LMMP SP antagonist Ke of Y[dA]GFFPLW-{OBzl(3,5-(CF3)2)} (also called TY003) [TyrDAlaGlyPhePheProLeuTrpOBn(CF3)2] 14.4 nM

Value source: patent US8026218
